tested.on: HLA-A*11:01 (recombinant MHC class I molecule) (human)
assay.info: REVEAL MHC-peptide binding assay, recombinant HLA-A*11:01
Description: Specifically, assessment was of a series of overlapping 9-mer peptides derived from the sequence […] […] In addition, a series of overlapping 9-mer peptides of each of a number of different variants of this portion also were assessed, each variant containing a mutation or mutations in this region as described in Example 2. […]
readout.label: In Vitro Score

Completed entries (count: 5):
FWVKRGSKK [Synthetic peptide FWVKRGSKK]
5.6 score, % of positive control peptide
FWVHRGRKK [Synthetic peptide FWVHRGRKK]
5.6 score, % of positive control peptide
IIFWVQRGN [Synthetic peptide IIFWVQRGN]
29 score, % of positive control peptide
FWVQRGSKK [Synthetic peptide FWVQRGSKK]
6.8 score, % of positive control peptide
FWVQRGNKK [Synthetic peptide FWVQRGNKK]
5.9 score, % of positive control peptide

VAFIIFWVQ [Synthetic peptide VAFIIFWVQ] yielded In Vitro Score of 3.9 score, % of positive control peptide

WVQRGAKKL [Synthetic peptide WVQRGAKKL] yielded In Vitro Score of 3.8 score, % of positive control peptide

WVLRGRKKL [Synthetic peptide WVLRGRKKL] yielded In Vitro Score of 3.2 score, % of positive control peptide

WVQRGSKKL [Synthetic peptide WVQRGSKKL] yielded In Vitro Score of 5.9 score, % of positive control peptide

FIIFWVSRG [Synthetic peptide FIIFWVSRG] yielded In Vitro Score of 5.1 score, % of positive control peptide

FIIFWVLRG [Synthetic peptide FIIFWVLRG] yielded In Vitro Score of 2.4 score, % of positive control peptide

Values compiled from patent US20200297760A1.
